- experimental target: Nitric oxide synthase 3 (Homo sapiens)
- protocol summary: Evaluation as substrate of endothelial nitric oxide synthase by hemoglobin assay using NOHA as control
Form field: NO formation (one value per entry).

Consider the worked cases shown below.
CCCCN/C(N)=N/O | 20%
N/C(=N/C1CC1)NO | 26%
CCCC/N=C(/N)NOCc1ccccc1 | < 0.5%

Record C/C=C/CN=C(N)N , field NO formation: < 0.5%

Kindly note the recorded NO formation for C/C=C/C/N=C(/N)NO , which is < 0.5%

// sample C#CCC/N=C(/N)NO , its NO formation was < 0.5%

The value of NO formation measured for the compound CC1CC1CN=C(N)N (stereo unspecified) turned out to be < 0.5%

Reported NO formation ( CCCC/N=C(/N)NOC ) = < 0.5%
